# PROTOCOL_NOTES: gradient 5% acetonitrile 3 min, to 50% in 2 min, to 85% in 15 min, held 3 min, 100 µL/min
# RUN_PARAMETERS: column: Zorbax Extend-C18 2.1 x 50 mm; eluents: water / acetonitrile, 0.1% formic acid
MEASURED_METRIC: RP-LC retention time (s)

Cc1nn(C)c(C)c1CCC(=O)N1CCN(c2ncccn2)CC1
564

(a) O=C(c1cc(Cl)ccc1Cl)N1CCN(CC(O)c2cccs2)CC1 (stereo not given)
(b) O=C(NCc1ccc(-c2nc(-c3cccs3)no2)s1)C1CCC1
Please indicate which item has the smaller measured RP-LC retention time: a versus b // respond with label for picked entry
a

(I) CC(C)c1nnc2n1CCN(C(=O)c1nccc3ccccc13)C2
(II) O=C(Nc1ccc(C(F)(F)F)cn1)c1cccc2cccnc12
Between the two listed entries I and II , which has its RP-LC retention time at the higher number? // respond with label for picked entry
II

(1) CN1C(=O)c2cccn2CC1C(=O)NCc1ccc2c(c1)OCO2 (stereo not given)
(2) CCN1C(=O)COc2ccc(-c3nc(NC(=O)c4ccccc4Br)sc3C)cc21
Between the two listed entries 1 and 2 , which has its RP-LC retention time at the higher number? // respond with label for picked entry
2
(2: 1010 s, 1: 657 s)

----------
# PROTOCOL_NOTES: gradient 5% acetonitrile 3 min, to 50% in 2 min, to 85% in 15 min, held 3 min, 100 µL/min
# RUN_PARAMETERS: column: Zorbax Extend-C18 2.1 x 50 mm; eluents: water / acetonitrile, 0.1% formic acid
MEASURED_METRIC: RP-LC retention time (s)

O=S(=O)(NCc1ccccc1C(F)(F)F)c1c[nH]c2ncccc12
785
CNC(=O)[C@@H]1CN(C(=O)NCc2ccco2)C[C@H]1c1nc(C)no1
602
CCc1ccccc1NC(=O)N1CCCC1c1nc(-c2ccc(F)cc2F)no1 (centres undefined)
987

(A) Cc1sc2ccn(Cc3ccc(F)cc3)c(=O)c2c1C(=O)NCC1CC1
(B) CCNC(=O)C1CCN(C(=O)N2C[C@H]3C[C@H](C2)[C@H]2CCCC(=O)N2C3)CC1
Please indicate which item has the smaller measured RP-LC retention time: A versus B // respond with label for picked entry
B
(B: 599 s, A: 858 s)

----------
# PROTOCOL_NOTES: gradient 5% acetonitrile 3 min, to 50% in 2 min, to 85% in 15 min, held 3 min, 100 µL/min
# RUN_PARAMETERS: column: Zorbax Extend-C18 2.1 x 50 mm; eluents: water / acetonitrile, 0.1% formic acid
MEASURED_METRIC: RP-LC retention time (s)

Reference set (8 entries):
O=C(c1ccc(F)cc1)N1CCN(c2nc(CN3CCOCC3)cs2)CC1
597
CCOC(=O)N1CCN(C(=O)c2cn(C)nc2C)CC1
572
CCc1cc(C(=O)Nc2ccc(F)c(C)c2)nc2ccnn12
1180
O=C(CCc1ccccc1)N1CCN(C(=O)c2nnn3c2COC(c2ccccc2)C3)CC1 (stereo not given)
891
CCN(C(=O)C1CCCN(c2ncnc3c2nc2n3CCCCC2)C1)c1cc(C)ccc1C (stereo not given)
905
COCCCNCc1c(C(=O)O)c(C)n(Cc2ccc(Cl)cc2)c1C
672
CC(=O)Nc1cccc(-n2cc3c(c2-c2ccccc2Cl)c(=O)n(C)c(=O)n3C)c1
768
CCCS(=O)(=O)N1CCCC(C)(C(=O)NCc2ccc(OC)cc2)C1 (stereo not given)
798

(A) CCOC(=O)N1CCN(C(=O)c2sc(NS(=O)(=O)c3ccccc3)nc2C)CC1
(B) Cc1ccc(-c2nc(-c3ccc(-c4noc(CNC(=O)c5ccco5)n4)cc3)cs2)s1
Between the two listed entries A and B , which has its RP-LC retention time at the higher number? // respond with label for picked entry
B
(B: 1130 s, A: 651 s)
